These data points were gathered from patent US20090220521A1.

systemUnderTest: recombinant human MIF (macrophage migration inhibitory factor) (human, UniProt P14174 2-115)
Sequence (P14174 2-115): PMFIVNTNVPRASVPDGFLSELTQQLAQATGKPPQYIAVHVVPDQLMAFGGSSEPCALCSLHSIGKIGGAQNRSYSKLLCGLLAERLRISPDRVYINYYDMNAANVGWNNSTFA
measurementDescription: Biacore; Fab fragment
pKd: −log10 of the molar value.

binder: BaxA10 (antibody, V domains shown) VH: EVQLLESGGGLVQPGGSLRLSCAASGFTFSWYAMDWVRQAPGKGLEWVSGIYPSGGRTKYADSVKGRFTISRDNSKNTLYLQMNSLRAEDTAVYYCARVNVIAVAGTGYYYYGMDVWGQGTTVTVSS VL: DIQMTQSPGTLSLSPGERATLSCRASQGVSSSSLAWYQQKPGQAPRLLIYGTSSRATGIPDRFSGSASGTDFTLTISRLQPEDFAVYYCQQYGRSLTFGGGTKVEIK
pKd: 9.40
